So I've got a bunch of molecules here, and I need their AC50 values.
- Measured on: human Adenosine A2a Receptor (AdoRA2a), ADORA2A (gene 135)
- Protocol: NVS_GPCR_hAdoRA2a: NovaScreen (NVS) G Protein-Coupled Receptor Assay for human Adenosine A2a Receptor (AdoRA2a) (AID 2283256)
Records with an inconclusive call do not appear. Calls of active or inactive are those of the source. The calls were made as follows: active = hit-call score of the fitted dose curve at least 0.9, where 1 is the maximum; inconclusive = response in the unintended direction; inactive = score below 0.9.

## Input Look up AC50 of CCOC(=O)O[C@H](C)OC(=O)c1ccc2c(c1)cc(C(=O)NC1CCN(C(C)C)CC1)n2Cc1cc(-c2ccc(Cl)s2)on1 and report it.
## Output 10.2 µM (active)

## Input Report AC50 for Cc1cc(F)ccc1-c1cc(N2CC[C@@H](O)[C@H]2CO)ncc1N(C)C(=O)C(C)(C)c1cc(C(F)(F)F)cc(C(F)(F)F)c1
## Output 20.4 µM (active)

## Input Answer with the recorded AC50 for the molecule listed here: CCCCCCCCOC(=O)c1cc(O)c(O)c(O)c1
## Output 8.09 µM (active)

## Input Query AC50 for O=c1c(-c2ccc(O)cc2)coc2cc(O)cc(O)c12
## Output 6.03 µM (active)

---

- Read-out: E-selectin (Homo sapiens) (UniProt P16581)
- Sequence (P16581 whole entry, looked up): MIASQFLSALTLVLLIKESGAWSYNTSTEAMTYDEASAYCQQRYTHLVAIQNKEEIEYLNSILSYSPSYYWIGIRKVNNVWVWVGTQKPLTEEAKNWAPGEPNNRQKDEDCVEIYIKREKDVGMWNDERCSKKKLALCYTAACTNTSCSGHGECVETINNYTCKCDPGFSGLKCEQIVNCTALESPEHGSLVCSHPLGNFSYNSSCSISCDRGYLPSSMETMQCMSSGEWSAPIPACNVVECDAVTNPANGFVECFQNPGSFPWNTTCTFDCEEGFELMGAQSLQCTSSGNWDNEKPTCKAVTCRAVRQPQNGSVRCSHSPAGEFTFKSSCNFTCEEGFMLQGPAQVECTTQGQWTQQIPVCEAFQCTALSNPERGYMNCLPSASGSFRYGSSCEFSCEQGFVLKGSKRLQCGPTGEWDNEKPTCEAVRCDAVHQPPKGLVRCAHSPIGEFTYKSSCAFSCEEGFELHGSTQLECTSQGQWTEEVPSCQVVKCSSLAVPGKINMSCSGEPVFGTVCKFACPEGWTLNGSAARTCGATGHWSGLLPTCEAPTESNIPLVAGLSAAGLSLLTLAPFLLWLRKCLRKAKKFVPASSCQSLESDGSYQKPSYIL
- Protocol: BSK_LPS_Eselectin: BioMAP Diversity Plus: LPS Assay for Eselectin Biomarker Activity (AID 2283077)
- Reported conditions: primary human HUVEC with PBMC; actives raise or lower the signal
Active and inactive are the calls of the source. Rule for the calls: active = hit-call score of the fitted dose curve at least 0.9, where 1 is the maximum; inactive = score below 0.9.
Outcome field: choose from Yes (active), No (inactive)

## Input What is the recorded call for this compound in the test? CN(C[C@@H](CC[N+]12CCC(C3CCCCC3)(CC1)CC2)c1ccc(Cl)c(Cl)c1)C(=O)c1cc(C(F)(F)F)cc(C(F)(F)F)c1
## Output Yes

## Input I would be grateful if you could indicate the recorded call for Cc1cc2c(cc1C(F)(F)F)N(C(=O)Nc1ccc(Oc3cccnc3C)nc1)CC2 .
## Output No

## Input Dear colleague, could you share the recorded outcome for Cc1ccc(C(C)C)cc1 when you have a moment?
## Output No

## Input What outcome does the record of this test show for COc1cc(C(=O)NC2CCN(C)CC2)ccc1Nc1ncc2c(n1)N(C1CCCC1)CC(F)(F)C(=O)N2C ?
## Output Yes

## Input GET /call?item= CCCCOC(=O)CC(CC(=O)OCCCC)(OC(C)=O)C(=O)OCCCC returns the recorded outcome of this test.
## Output No

## Input What did this assay record as the result for CN(C)C(=O)C1(N2CCCCC2)CCN(CC[C@@]2(c3ccc(Cl)c(Cl)c3)CN(C(=O)c3ccccc3)CCO2)CC1 ?
## Output Yes

## Input What was the test verdict on Cc1occc1C(=O)Nc1ccc(C(=O)N2CCC(F)(F)/C(=C\C(=O)N3CCC(N4CCCCC4)CC3)c3ccccc32)cc1 ?
## Output No

## Input Tell me the recorded outcome of this test for O=c1c(-c2ccc(O)cc2)coc2cc(O)cc(O)c12 .
## Output Yes

## Input Please share the test call associated with CC1(C)NC(=O)N(c2ccc([N+](=O)[O-])c(C(F)(F)F)c2)C1=O .
## Output No

## Input Recorded call for CCCCCCCCCC(=O)O ?
## Output No

## Input Assay result, entry CC/C(=C(/CC)c1ccc(O)cc1)c1ccc(O)cc1 — outcome?
## Output Yes

## Input Call for entry O=C1CCC(C2CCCCC2)CC1 :
## Output No

## Input Fill in: this test's call for CC1=CC(=O)/C(=C(/C)O)C(=O)O1 is ___
## Output No

## Input Assay result, entry OCCO — outcome?
## Output No

---

- Read-out: Cyclin Dependent Kinase Inhibitor 1A (CDKN1A), CDKN1A (gene 1026)
- Protocol: LTEA_HepaRG_CDKN1A: Life Technologies and Expression Analysis (LTEA) Assay for Cyclin Dependent Kinase Inhibitor 1A (CDKN1A) using HepaRG (AID 2283450)
- Reported conditions: mRNA level, 48 h; actives raise or lower the signal
Activity calls are given as the source filed them. The calls were made as follows: active = hit-call score of the fitted dose curve at least 0.9, where 1 is the maximum; inactive = score below 0.9.
// classify into 1 (yes) (active), 0 (no) (inactive)

## Input What call does the record list for CC(=O)N1CCN(c2ccc(OC[C@H]3CO[C@](Cn4ccnc4)(c4ccc(Cl)cc4Cl)O3)cc2)CC1 ?
## Output 1 (yes)

## Input Could you kindly confirm the outcome this assay logged for COc1ccc2cc(S(=O)(=O)N[C@H](CC(=O)N[C@H](Cc3ccc(CN4[C@H](C)CCC[C@@H]4C)cc3)C(=O)N(C)C(C)C)c3ccc4c(c3)OCO4)ccc2c1 ?
## Output 0 (no)

## Input What is the recorded call for this molecule in the test? O=CCCCC=O
## Output 0 (no)

## Input Outcome logged for CCCCCCCCOc1ccc(C(=O)c2ccccc2)c(O)c1 in this assay:
## Output 0 (no)

## Input Outcome logged for O=C1CCC(C2CCCCC2)CC1 in this assay:
## Output 0 (no)

## Input Status in this test for Cc1cc2c(cc1C(F)(F)F)N(C(=O)Nc1ccc(Oc3cccnc3C)nc1)CC2 ?
## Output 0 (no)

## Input Could you please tell me the result logged for O=C(O)c1ccccc1-n1cc(C(=O)O)c(=O)c2cc(Nc3c(F)cc(F)cc3Cl)c(Cl)cc21 in this assay?
## Output 0 (no)

## Input Lab log entry: Clc1cc(Cl)c2c(c1)N=C1CCCCCN1C2 — outcome as called in the assay?
## Output 0 (no)

## Input Answer briefly: the call reported for CCCCCCCCCCCC[N+](C)(C)C in this assay.
## Output 1 (yes)

## Input Hey, what did the test say about CCCCCCCCCC(=O)O ?
## Output 0 (no)

## Input Dear colleague, could you share the recorded outcome for O=c1c(-c2ccc(O)cc2)coc2cc(O)cc(O)c12 when you have a moment?
## Output 0 (no)

## Input Could you kindly confirm the outcome this assay logged for O=C(O)Cc1cc(I)c(Oc2ccc(O)c(I)c2)c(I)c1 ?
## Output 1 (yes)

## Input // return assay outcome for Cc1occc1C(=O)Nc1ccc(C(=O)N2CCC(F)(F)/C(=C\C(=O)N3CCC(N4CCCCC4)CC3)c3ccccc32)cc1
## Output 0 (no)

## Input # outcome recorded in this test, key = CC(C)(O)c1ccc(CNC(=O)c2cccnc2Oc2ccc3nonc3c2)cc1
## Output 0 (no)

## Input Query: recorded result category for OC12N=C(c3ccccc3)SC1Cc1cc(Cl)ccc12 (configuration not stated) in this test
## Output 0 (no)

## Input What was the test verdict on Cc1cn([C@H]2C[C@H](N=[N+]=[N-])[C@@H](CO)O2)c(=O)[nH]c1=O ?
## Output 0 (no)

## Input Each molecule tested received a call. Report the one for NCc1cccc(C2CCN(C(=O)c3ccc(C#Cc4ccccc4F)o3)CC2)c1 .
## Output 0 (no)

## Input Field: outcome | Entry: CCCCCCCCOC(=O)c1cc(O)c(O)c(O)c1
## Output 0 (no)

## Input Can you look up the reported call for CCCCCCCCCCCO for me?
## Output 0 (no)

## Input Please state the recorded outcome for this molecule: Clc1ccccc1C(c1ccccc1)(c1ccccc1)n1ccnc1
## Output 1 (yes)

## Input Test call, this molecule: CCOC(=O)O[C@H](C)OC(=O)c1ccc2c(c1)cc(C(=O)NC1CCN(C(C)C)CC1)n2Cc1cc(-c2ccc(Cl)s2)on1
## Output 0 (no)

## Input # outcome recorded in this test, key = CC(C)(C)c1csc(-c2cc3cc(OCc4ccccc4CC(=O)O)ccc3o2)n1
## Output 0 (no)

## Input For OCCO , what call appears in the results of this test?
## Output 0 (no)

## Input # outcome recorded in this test, key = CN(C)C(=O)C1(N2CCCCC2)CCN(CC[C@@]2(c3ccc(Cl)c(Cl)c3)CN(C(=O)c3ccccc3)CCO2)CC1
## Output 1 (yes)

## Input I would be grateful if you could indicate the recorded call for Cc1ncc(CO)c(CO)c1O .
## Output 0 (no)

## Input Hello, I am checking results. What call was entered for CCCCCc1ccc(N)cc1 ?
## Output 0 (no)

## Input Assay outcome for Cc1ccc2oc(CN(Cc3ccccc3)C(=O)Nc3c(F)cc(F)cc3F)c(-c3ccc(Cl)cc3)c2c1 : what was it?
## Output 0 (no)

---

- Read-out: urokinase plasminogen activator (uPA), PLAU (gene 5328)
- Protocol: BSK_KF3CT_uPA: BioMAP Diversity Plus: KF3CT Assay for urokinase plasminogen activator (uPA) Biomarker Activity (AID 2283075)
- Reported conditions: primary human keratinocytes with fibroblasts; actives raise or lower the signal
Calls of active or inactive are those of the source. The calls were made as follows: active = hit-call score of the fitted dose curve at least 0.9, where 1 is the maximum; inactive = score below 0.9.
The reply should be one of these categories: active, inactive

## Input Please state the recorded outcome for this molecule: O=c1[nH]sc2ccccc12
## Output active

## Input What is the recorded call for this molecule in the test? Cc1cn([C@H]2C[C@H](N=[N+]=[N-])[C@@H](CO)O2)c(=O)[nH]c1=O
## Output inactive

## Input Record lookup: outcome of this test for CCCCCCCCCC(=O)O ?
## Output inactive

## Input Hey, what did the test say about CCCCCCCCCCCC[N+](C)(C)C ?
## Output active

## Input Query: recorded result category for CN(C[C@@H](CC[N+]12CCC(C3CCCCC3)(CC1)CC2)c1ccc(Cl)c(Cl)c1)C(=O)c1cc(C(F)(F)F)cc(C(F)(F)F)c1 in this test
## Output active

## Input State the result this test recorded for CC(C)(c1cc(Br)c(O)c(Br)c1)c1cc(Br)c(O)c(Br)c1 .
## Output active

## Input Would you mind telling me which call this test gave CC(C)(O)c1ccc(CNC(=O)c2cccnc2Oc2ccc3nonc3c2)cc1 ?
## Output inactive

## Input GET /call?item= CC1(C)NC(=O)N(c2ccc([N+](=O)[O-])c(C(F)(F)F)c2)C1=O returns the recorded outcome of this test.
## Output inactive
